# Test system: recombinant retrovirus that expresses a GFP reporter gene
# PROCEDURE TEXT: Production of recombinant GFP retrovirus in GP293 packaging cells
# Assay type: cell-based
# CONDITION NOTES: unidentified retrovirus, medium collected 36 hours later, GFP fluorescence in target cells, read-out: IC50 for inhibition of production of recombinant retrovirus
pIC50: −log10 of the molar value.
READOUT TYPE: pIC50

> print(dat)
                                   compound  readout.type  recorded.measurement
1  CC1(C)C(N(O)C(=O)Nc2ccc(Cl)cc2)N(c2ccc(Cl)cc2)C(=O)N1CC(=O)N/N=C/C=Cc1ccc([N+](=O)[O-])o1 (stereo not shown) [EERI]         pIC50                 ~5.52
